- tgt: RORγ (UniProt P51449)
- Sequence (P51449 1-518): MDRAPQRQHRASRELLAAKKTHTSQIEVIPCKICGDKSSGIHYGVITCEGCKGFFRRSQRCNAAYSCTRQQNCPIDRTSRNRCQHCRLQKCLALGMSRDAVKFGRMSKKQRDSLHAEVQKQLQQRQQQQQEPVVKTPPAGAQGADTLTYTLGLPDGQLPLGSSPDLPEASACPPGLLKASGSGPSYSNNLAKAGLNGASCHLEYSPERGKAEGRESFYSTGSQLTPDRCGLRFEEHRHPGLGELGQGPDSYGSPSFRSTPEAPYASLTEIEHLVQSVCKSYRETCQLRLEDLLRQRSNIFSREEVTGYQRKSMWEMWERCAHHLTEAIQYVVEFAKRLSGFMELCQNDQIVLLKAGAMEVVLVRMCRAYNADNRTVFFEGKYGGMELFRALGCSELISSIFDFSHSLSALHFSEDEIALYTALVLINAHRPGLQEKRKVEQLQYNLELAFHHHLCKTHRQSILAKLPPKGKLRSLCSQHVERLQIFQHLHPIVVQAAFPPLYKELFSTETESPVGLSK
- experimentalProtocol: RORγ Gal4 Reporter Gene Assay in 293T cells (firefly and renilla luciferase)
- Assay type: cell-based, human
- statedConditions: third value of the cell; Gal4 reporter gene assay in 293T cells, renilla normalised luciferase
reportedProperty: pIC50 (REN)
Numbers only.

Answered cases to consult:
structureNotation	pIC50 (REN)
Cc1c(-c2cc(C(=O)NC3CCOCC3)c(C)n2CC2CCCCC2)ccc(S(=O)(=O)NC(C)(C)C)c1C	7.3
Cc1c(C(=O)NCC(C)(C)O)cc(-c2ccc(S(=O)(=O)NC(C)(C)C)c3ccccc23)n1CC1CCC(F)(F)CC1	7.0
CC(C)(C)c1cc(-c2cc(C(=O)N[C@H]3C[C@H](C(=O)O)C3)c(F)n2CC2CCCCC2)cc(C2(C)CC2)c1	7.4
CCC(C)(C)NS(=O)(=O)c1ccc(-c2cc(C(=O)NC3COC3)c(C)n2CC2CCCCC2)cc1C(C)(C)C	7.5
Cc1c(C(=O)NCC2(C)COC2)cc(-c2cc(C(C)(C)C)cc(C3(C)CC3)c2)n1CC1CCCCC1	7.6

// next entry
Qu. Report pIC50 (REN), nothing else, for this molecule: `Cc1c(C(=O)N[C@H]2C[C@H](C(=O)O)C2)cc(-c2cc(C(C)(C)C)cc(C(=O)NC(C)(C)C)c2Cl)n1CC1CCCCC1`
Ans. 6.2

---

Field: pIC50 (REN). Provide a value for each of the molecules that follow.
- tgt: RORγ (UniProt P51449)
- Sequence (P51449 1-518): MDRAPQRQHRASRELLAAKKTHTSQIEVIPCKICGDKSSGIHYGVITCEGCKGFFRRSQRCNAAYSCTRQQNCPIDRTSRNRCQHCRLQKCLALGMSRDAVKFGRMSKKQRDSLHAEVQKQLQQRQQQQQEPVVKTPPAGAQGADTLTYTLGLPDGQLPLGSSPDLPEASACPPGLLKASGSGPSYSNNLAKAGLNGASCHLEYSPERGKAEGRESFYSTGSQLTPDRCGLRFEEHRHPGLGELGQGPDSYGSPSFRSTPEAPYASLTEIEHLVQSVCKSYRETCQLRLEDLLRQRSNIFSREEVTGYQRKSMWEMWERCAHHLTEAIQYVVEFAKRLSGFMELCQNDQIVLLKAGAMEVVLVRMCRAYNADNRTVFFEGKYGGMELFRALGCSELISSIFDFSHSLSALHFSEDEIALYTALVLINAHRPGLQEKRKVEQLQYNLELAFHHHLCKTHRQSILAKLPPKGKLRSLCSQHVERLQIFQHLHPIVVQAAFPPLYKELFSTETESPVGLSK
- experimentalProtocol: RORγ Gal4 Reporter Gene Assay in 293T cells (firefly and renilla luciferase)
- Assay type: cell-based, human
- statedConditions: third value of the cell; Gal4 reporter gene assay in 293T cells, renilla normalised luciferase
Numbers only.

Illustrative cases are given below, each with its answer.
molecule	pIC50 (REN)
Cc1c(C(=O)NCC2(CO)COC2)cc(-c2cc(C(C)(C)C)c3c(c2)C2(CCO3)CC2)n1CC1CCCCC1 [17/8]	7.2
Cc1c(C(=O)NCCCN2CCOCC2)cc(-c2cc(C(C)(C)C)cc(C(C)(C)C)c2)n1CC1CCCCC1 [1/71]	5.9

// switching to the query molecule
Qu. // Input: Cc1c(C(=O)NC2COC2)cc(-c2ccc(S(=O)(=O)N(C)C(C)(C)C)c(C(C)(C)C)c2)n1CC1CCCCC1 [9/5] . Output its pIC50 (REN) only.
Ans. 7.2
